- assayed_system: ferroportin tagged at the C-terminus with green fluorescent protein [GFP: P42212]
- assay: cell-based or functional assay
Starred links: 1 amine or outer side, 2 acyl side, 3 side chain; linkers in the order of their positions; H or OH if unused. Non-standard residues stand in square brackets, D forms with d. Primed or numbered codes have the meaning given here. No end group written: not given here. *: point of attachment. PEG12 = NCCOCCOCCOCCOCCOCCOCCOCCOCCOCCOCCOCCOCCC(=O)O; Dip = N[C@H](C(=O)O)C(c1ccccc1)c1ccccc1; Ida″ = O=C(CN(CC(=O)[*:3])[*:1])[*:2]; Palmitoyl = CCCCCCCCCCCCCCCC(=O)*; β3hF = N[C@H](CC(=O)O)Cc1ccccc1; NMeD = CN[C@@H](CC(=O)O)C(=O)O; β3hP = O=C(O)C[C@@H]1CCCN1; Ach = not defined here; Dpa = not defined here
property: EC50 (nM) in vitro

[[record]]
binder = "[NMeD]TH[Dpa][β3hP]ICI[β3hF] (reading uncertain; also: R14 = Palmitoyl-PEG-miniPEG3- substituent, attachment not placed) [PR54]"
assay_value = 10


a: {Palmitoyl-PEG12}-[Dip]ICIP[Dip]HTD (not fully specified (C-terminus); printed as R4-Dpa-I-C-I-P-Dpa-H-T-D; also: retroinverted, D residues underlined, underlining lost) [PR48]
b: [NMeD]TH[Dpa]P[Ach]C[Ach]F (reading uncertain; also: R14 = Palmitoyl-PEG-miniPEG3- substituent, attachment not placed) [PR55]
c: [Ida″]TH[Dpa]PICI[β3hF] (reading uncertain; also: R14 = Palmitoyl-PEG-miniPEG3- substituent, attachment not placed) [PR58]
d: [Ida″]TH[Dpa][β3hP]ICI[β3hF] (reading uncertain; also: R14 = Palmitoyl-PEG-miniPEG3- substituent, attachment not placed) [PR59]
Would you mind ranking these binders by ascending EC50 (nM) in vitro? Returns: the labels listed in the requested order. c, d, b, a
(c: 1 nM, d: 2 nM, b: 10 nM, a: 50 nM)
